Tested on: buckwheat, wild (wild buckwheat, Polygonum convolvulus)
measurement_description: Test D pre-/postemergence: buckwheat, wild
Type: in vivo
test_parameters: Preemergence, 31 g ai/ha; scale 0 to 100, 0 no effect, 100 complete control
reported_metric: Plant response rating, Buckwheat, Wild
No unit in the answer, only the number.

The cases that follow already have their Plant response rating, Buckwheat, Wild on record.
>>> df
                              smiles_string  endpoint_value
0  Cc1nn(-c2ccc(C(F)(F)F)cn2)nc1Cc1cccc(C(F)(F)F)c1              50
1  FC(F)(F)COc1nn(-c2ccc(C(F)(F)F)cc2)nc1Cc1ccnc(C(F)(F)F)c1               0
2  Cc1nn(-c2ccc(C(F)(F)F)c(F)c2)nc1Oc1ccnc(C(F)(F)F)c1              30
3  COc1nn(-c2ccc(C(F)(F)F)cc2)nc1Cc1ccnc(C(F)(F)F)c1               0

Next compound, please.
# input API: value(readout= Plant response rating, Buckwheat, Wild, system= buckwheat, wild (wild buckwheat, Polygonum convolvulus), query= "CCc1nn(-c2ccc(C(F)(F)F)cc2)nc1Cc1ccnc(C(F)(F)F)c1" )
# output 25
